Compiled literature IC50, tested on Cytochrome P450 2C8 (Homo sapiens).
Readout: IC50 (µM)

[[record]]
compound = "O=C(N[C@H]1C[C@@H]1c1ccccc1)N1CCC(Oc2ccc(-c3nnn[nH]3)cc2)CC1 (racemic)"
readout = "IC50"
result_units = "µM"
measured_number = 0.8

[[record]]
compound = "O=C(CCc1ncc(-c2ccc(O)cn2)s1)Nc1ccccc1C(=O)O"
readout = "IC50"
result_units = "µM"
measured_number = 9.3

[[record]]
compound = "Cc1cn(-c2ccc3n(c2=O)CCN(CCOc2ccc(Cl)cc2C(F)(F)F)C3=O)cn1"
readout = "IC50"
result_units = "µM"
measured_number = 12.3


P: N#CCCN1C(=O)CC[C@H]1C(=O)N1CC[C@@]2(S(=O)(=O)c3ccc(F)cc3)c3ccc(C(F)(C(F)(F)F)C(F)(F)F)cc3CC[C@@H]12
Q: C=CC(=O)N1C[C@@H]2C[C@H]1CN2c1ccc(C(N)=O)c(Oc2ccc(Oc3ccccc3)cc2)n1
Lower IC50: P or Q ? Mark your answer with the label of the selected entry.
Q

A: CC(=O)O[C@H]1C(=O)[C@@]2(C)[C@H]([C@H](OC(=O)c3ccccc3)[C@]3(O)C[C@H](OC(=O)[C@H](O)[C@@H](NC(=O)c4ccccc4)c4ccccc4)C(C)=C1C3(C)C)[C@]1(OC(C)=O)CO[C@@H]1[C@@H](O)[C@@H]2O
B: CC[C@H](NS(=O)(=O)c1ccc(-c2sc(CC(C)(C)C(=O)O)nc2CC2CCC2)c(C(F)F)c1F)C(F)(F)F
Lower IC50: A or B ? Mark your answer with the label of the selected entry.
B

====

Compiled literature IC50, tested on Cytochrome P450 2C8 (Homo sapiens, UniProt P10632).
Sequence (P10632 whole entry): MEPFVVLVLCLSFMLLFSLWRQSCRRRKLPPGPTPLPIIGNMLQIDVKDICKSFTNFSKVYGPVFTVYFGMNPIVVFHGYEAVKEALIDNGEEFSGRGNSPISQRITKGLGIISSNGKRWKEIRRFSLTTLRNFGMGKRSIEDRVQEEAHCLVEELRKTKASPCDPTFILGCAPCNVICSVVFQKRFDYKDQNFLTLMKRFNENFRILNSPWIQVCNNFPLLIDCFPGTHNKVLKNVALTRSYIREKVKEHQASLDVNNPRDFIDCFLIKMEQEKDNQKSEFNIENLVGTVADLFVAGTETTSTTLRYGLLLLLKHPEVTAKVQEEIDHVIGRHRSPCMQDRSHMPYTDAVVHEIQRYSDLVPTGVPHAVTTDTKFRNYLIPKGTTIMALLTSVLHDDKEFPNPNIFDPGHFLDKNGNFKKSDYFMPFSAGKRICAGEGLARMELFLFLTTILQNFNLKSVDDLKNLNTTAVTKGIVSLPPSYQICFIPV

Tell me reported IC50 for C[C@H](Nc1ccc2c(c1)OCCn1cc(N3C(=O)OC[C@H]3C(F)F)nc1-2)C(N)=O , tested with Cytochrome P450 2C8 (Homo sapiens, UniProt P10632).
> 10 µM

Tell me reported IC50 for CCCSc1nc2ccc(OC)cc2[nH]1 , tested with Cytochrome P450 2C8 (Homo sapiens, UniProt P10632).
3.12 µM

Tell me reported IC50 for O=C(O)c1ccc2ccc(C(=O)c3ccccc3)c-2cc1 , tested with Cytochrome P450 2C8 (Homo sapiens, UniProt P10632).
> 50 µM

Tell me reported IC50 for CO[C@]1(CN2CCN3CCCC[C@@H]3C2)/C=C/C[C@H](C)[C@@H](C)S(=O)(=O)NC(=O)c2ccc3c(c2)N(C[C@@H]2CC[C@H]21)C[C@@]1(CCCc2cc(Cl)ccc21)CO3 , tested with Cytochrome P450 2C8 (Homo sapiens, UniProt P10632).
3.16 µM

Tell me reported IC50 for COc1cc2c(cc1OCCCCCCC(=O)O)C[C@@H](C(C)C)n1cc(C(=O)O)c(=O)cc1-2 , tested with Cytochrome P450 2C8 (Homo sapiens, UniProt P10632).
> 10 µM

Tell me reported IC50 for O=C(CCc1ccn(-c2ccccc2)n1)Nc1ccccc1C(=O)O , tested with Cytochrome P450 2C8 (Homo sapiens, UniProt P10632).
2.7 µM

Tell me reported IC50 for O=C(O)c1ccc(N2CCC3(C=C(c4c(-c5c(Cl)cccc5Cl)noc4C4CC4)C3)CC2)cn1 , tested with Cytochrome P450 2C8 (Homo sapiens, UniProt P10632).
7.4 µM

Tell me reported IC50 for O=C(CCc1cnc(-c2ccc(O)cc2Cl)s1)Nc1ccccc1C(=O)O , tested with Cytochrome P450 2C8 (Homo sapiens, UniProt P10632).
1.2 µM

Tell me reported IC50 for COc1nn(C)cc1C(=O)N[S@@]1(=O)=NC(=O)c2ccc3c(c2)N(C[C@@H]2CCO[C@H]2[C@](CN2CCN4CCOC[C@@H]4C2)(OC)/C(F)=C/C[C@H](C)C1)C[C@@]1(CCCc2cc(Cl)ccc21)CO3 , tested with Cytochrome P450 2C8 (Homo sapiens, UniProt P10632).
6.31 µM
